Biological target: rat homomeric P2X3 receptors (Rattus norvegicus)
Construct: transfected with rat or human full-length P2X3 cDNA subcloned into pIRES2-EGFP; expressed in transfected cells; host or cells: HEK293T (HEK293 in the results)
Sequence (P49654 whole entry): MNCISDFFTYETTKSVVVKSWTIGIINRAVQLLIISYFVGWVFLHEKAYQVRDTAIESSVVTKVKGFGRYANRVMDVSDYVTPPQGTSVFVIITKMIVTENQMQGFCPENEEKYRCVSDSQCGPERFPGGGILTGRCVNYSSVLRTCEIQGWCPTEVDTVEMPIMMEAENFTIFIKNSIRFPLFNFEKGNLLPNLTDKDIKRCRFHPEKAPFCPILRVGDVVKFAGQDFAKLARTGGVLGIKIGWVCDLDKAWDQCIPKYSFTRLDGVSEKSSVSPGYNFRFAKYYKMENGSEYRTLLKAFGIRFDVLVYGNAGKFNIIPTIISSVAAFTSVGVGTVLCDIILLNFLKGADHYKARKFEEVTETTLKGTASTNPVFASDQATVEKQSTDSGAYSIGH
Test: Whole-cell patch clamp on HEK293 cells expressing rat homomeric P2X3R (activation and HAD inhibition of α,β-meATP test pulses)
Assay type: cell-based
endpoint.label: pIC50
Friendly reminder that pIC50 comes from taking -log10 of the concentration in mol/L.

Looking up Nc1ncnc2c1ncn2[C@@H]1O[C@H](COP(=O)(O)OP(=O)(O)NP(=O)(O)OP(=O)(O)OC[C@H]2O[C@@H](n3cnc4c(N)ncnc43)[C@H](O)[C@@H]2O)[C@@H](O)[C@H]1O , I found its pIC50 recorded as 6.70

// data source = paper PMC4955970
